Data credit: patent US7601739B2

Biological target: hERα (Homo sapiens, UniProt P03372)
Construct: mammalian expression plasmid containing full length human ER cDNA, pCMV-hER; expressed in transfected cells; host or cells: MCF-7 human breast cancer cells
Sequence (P03372 1-595): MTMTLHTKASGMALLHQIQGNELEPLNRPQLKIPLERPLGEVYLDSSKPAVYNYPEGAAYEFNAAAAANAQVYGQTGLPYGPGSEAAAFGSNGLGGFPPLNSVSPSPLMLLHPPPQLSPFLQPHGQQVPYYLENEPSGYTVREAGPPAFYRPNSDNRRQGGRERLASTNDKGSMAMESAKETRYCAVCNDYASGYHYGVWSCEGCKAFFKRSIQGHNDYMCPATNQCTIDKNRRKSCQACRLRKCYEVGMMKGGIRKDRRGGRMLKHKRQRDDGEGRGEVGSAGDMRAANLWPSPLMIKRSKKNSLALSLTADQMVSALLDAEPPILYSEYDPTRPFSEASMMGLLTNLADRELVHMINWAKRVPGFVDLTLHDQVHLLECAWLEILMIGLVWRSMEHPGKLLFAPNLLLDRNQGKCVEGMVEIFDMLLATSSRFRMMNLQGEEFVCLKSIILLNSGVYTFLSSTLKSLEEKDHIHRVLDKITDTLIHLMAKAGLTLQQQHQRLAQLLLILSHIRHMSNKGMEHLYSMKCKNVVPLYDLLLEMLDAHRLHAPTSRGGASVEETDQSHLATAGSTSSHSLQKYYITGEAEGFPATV
Assay: Transient transfection reporter assay for hERα in MCF-7 cells
Type: cell-based
Conditions: with 1 nM estradiol; 1 nM E2 used as reference (1)
Would you mind telling me the reported Relative Antiestrogenic Activity at 2.5 μM of each entry?
# output: bare number, no unit

# query: Relative Antiestrogenic Activity at 2.5 μM of entry CCCCNC(=O)CCCCCCCCCCOCC1Cc2ccccc2CN1C(=O)c1ccc(F)cc1 (centres unmarked) [Compound 3]
0.93

Reported Relative Antiestrogenic Activity at 2.5 μM for CCCCNC(=O)CCCCCCCCCCOCC1Cc2ccccc2CN1C(=O)c1cccc(O)c1 (centres unmarked) [Compound 6] : what is it?
0.44

For the compound shown here, CCCCNC(=O)CCCCCCCCCCOCC1Cc2ccccc2CN1C(=O)Cc1cccc(F)c1 (centres unmarked) [Compound 12] , give the reported Relative Antiestrogenic Activity at 2.5 μM.
1.01

For CCCCNC(=O)CCCCCCCCCCOCC1Cc2ccccc2CN1C(=O)c1ccc(C)cc1 (centres unmarked) [Compound 9] , what is its reported Relative Antiestrogenic Activity at 2.5 μM?
1.34

Fill in: Relative Antiestrogenic Activity at 2.5 μM of CCCCNC(=O)CCCCCCCCCCOCC1Cc2ccccc2CN1C(=O)c1ccc(OC)cc1 (centres unmarked) [Compound 5] is ___
1.64

Would you mind telling me what Relative Antiestrogenic Activity at 2.5 μM value was observed for CCCCNC(=O)CCCCCCCCCCOCC1Cc2ccccc2CN1C(=O)c1cccc(OC)c1 (centres unmarked) [Compound 4] ?
0.79

Please look up its Relative Antiestrogenic Activity at 2.5 μM: CCCCNC(=O)CCCCCCCCCCOCC1Cc2ccccc2CN1C(=O)c1ccccc1F (centres unmarked) [Compound 1]
1.17

Would you mind telling me what Relative Antiestrogenic Activity at 2.5 μM value was observed for CCCCCCCCNC(=O)CCCCCCCCCCOCC1Cc2ccccc2CN1C(=O)c1cccc(F)c1 (centres unmarked) [Compound 11] ?
1.11
